Test system: BDF1 mice, P388 leukemia ip, median survival T/C
assayDetails: NCI In Vivo Anticancer Drug Screen. Data for tumor model P388 Leukemia (intraperitoneal) in B6D2F1 (BDF1) mice
measurementContext: endpoint: median survival time; dose: 100.0 mg/kg/injection; schedule: Q01DX009 (ip); vehicle: water; higher = longer survival
Toxic doses and inconclusive results are not listed.
attributeMeasured: T/C

These recorded examples may help you get a feel for the data.
> print(dat)
                              molsmiles  attributemeasured     measuredvalue
1  O=c1cc(N=Nc2ccc(O)cc2)[nH]c(=O)[nH]1                T/C  106 % of control
2        CN(C)CCCNC1=CC(=O)c2ccccc2C1=O                T/C  103 % of control
3          CC(=O)Nc1ccc2cnn(C(C)=O)c2c1                T/C   88 % of control
4             O=C(O)CCC1(c2ccccc2)CCCC1                T/C  103 % of control
5                CC(C)(N)CCC(C)(C)NCCCN                T/C  103 % of control

# input for lookup
T/C reported for this molecule COc1cc2c[n+](C)c3c4cc(OC)c(OC)cc4ccc3c2cc1OC : 106 % of control

----------
Tested on: BDF1 mice, P388 leukemia ip, median survival T/C
assayDetails: NCI In Vivo Anticancer Drug Screen. Data for tumor model P388 Leukemia (intraperitoneal) in B6D2F1 (BDF1) mice
measurementContext: endpoint: median survival time; dose: 25.0 mg/kg/injection; schedule: Q04DX003 (ip); vehicle: saline; higher = longer survival
Toxic doses and inconclusive results are not listed.
attributeMeasured: T/C

Hey, quick one: what's T/C for each of these?
1. CC1(C)/C(=C/c2ccccc2)C(=O)c2ccccc21
2. OCCN1CCN(CC/C=C2\c3ccccc3COc3ccc(Cl)cc32)CC1
3. C[S+](C)C
4. COc1cc2c(cc1OCc1ccccc1)C=CN(C(=O)c1ccccc1)C2C#N (configuration not stated)
5. Cc1cc(=O)cc(C(=O)O)o1
6. CSc1nc(Cl)cc2c1ncn2C1OC(CO)C(O)C1O (configuration not stated)
7. CCCC1CC[N-]CC1.CCCC1CC[N-]CC1.[Cl][Pt+2]([Cl])([Cl])[Cl]
8. Cc1ccc(NCCNCC(C)(C)O)c2c(=O)c3ccccc3sc12

OUT:
1: 118 % of control; 2: 109 % of control; 3: 100 % of control; 4: 103 % of control; 5: 113 % of control; 6: 102 % of control; 7: 122 % of control; 8: 120 % of control

Hey, quick one: what's T/C for each of these?
1. CCC(C(=O)O)C(=O)O.[NH-]CC[NH-].[Pt+2]
2. CCCCCCC(C)[N+](C)(C)C (configuration not stated)
3. CC([NH-])C(=O)O.CC([NH-])C(=O)O.[Ni+2] (configuration not stated)

OUT:
100 % of control
113 % of control
118 % of control

T/C reported for this compound N=c1ccc2nc3ccc(N)cc3sc-2c1 : 100 % of control

----------
For each record, write down the corresponding T/C.
System: BDF1 mice, P388 leukemia ip, median survival T/C
assayDetails: NCI In Vivo Anticancer Drug Screen. Data for tumor model P388 Leukemia (intraperitoneal) in B6D2F1 (BDF1) mice
measurementContext: endpoint: median survival time; dose: 400.0 mg/kg/injection; schedule: Q01DX009 (ip); vehicle: saline with Tween-80; higher = longer survival
Toxic doses and inconclusive results are not listed.

These recorded examples may help you get a feel for the data.
> print(dat)
                                   compound  attributemeasured     measuredvalue
1  ClC1=C(Cl)C2(Cl)C3(Cl)C(Cl)=C(Cl)C(Cl)(C3c3ccccc3)C2(Cl)C1c1ccccc1 (stereo not drawn)                T/C   95 % of control
2                              CCN(O)C(N)=O                T/C  100 % of control

T/C reported for this compound COc1cc(OC)cc(C(=O)Br)c1 : 91 % of control
